- method.description: Plasma pharmacokinetics of FdCyd, metabolites and THU in cynomolgus monkeys
- assay.setup: both, cynomolgus monkey, plasma, po, 10 mg/kg, Tmax for FdCyd (mean), monkeys; FdCyd 10 mg/kg PO 1 h after 500 mg/kg THU PO
property.label: Tmax (h)
Write the answer as a number in h, unit excluded.

Measured Tmax, "Nc1nc(=O)n([C@H]2C[C@H](O)[C@@H](CO)O2)cc1F" : 1.38

====

- method.description: Plasma pharmacokinetics of FdCyd, metabolites and THU in cynomolgus monkeys
- assay.setup: both, cynomolgus monkey, plasma, po, 10 mg/kg, Cmax, analyte FdCyd; FdCyd 10 mg/kg PO 1 h after THU 500 mg/kg PO; N=4; mean (±SD)
property.label: Cmax (ng/mL)
Write the answer as a number in ng/mL, unit excluded.

Measured Cmax, Nc1nc(=O)n([C@H]2C[C@H](O)[C@@H](CO)O2)cc1F [FdCyd, 5-fluoro-2’-deoxycytidine] : 2030

====

- method.description: Plasma pharmacokinetics of FdCyd, metabolites and THU in cynomolgus monkeys
- assay.setup: both, cynomolgus monkey, plasma, po, 10 mg/kg, AUC0-t, analyte FdCyd; FdCyd 10 mg/kg PO 1 h after THU 150 mg/kg PO; N=4; mean (±SD)
property.label: AUC(0-t)
Give me the value, and tack the unit on after it.

Measured AUC(0-t), "Nc1nc(=O)n([C@H]2C[C@H](O)[C@@H](CO)O2)cc1F" : 1870 ng·h/mL

====

- method.description: Plasma pharmacokinetics of FdCyd, metabolites and THU in cynomolgus monkeys
- assay.setup: both, cynomolgus monkey, plasma, iv, Tmax, analyte FdCyd; FdCyd 8 mg/kg 3 h IV infusion with THU 30 mg/kg IV; N=2; mean (±SD)
property.label: Tmax

Measured Tmax, Nc1nc(=O)n([C@H]2C[C@H](O)[C@@H](CO)O2)cc1F [FdCyd, 5-fluoro-2’-deoxycytidine] : 1.75 h

====

- method.description: Plasma pharmacokinetics of FdCyd, metabolites and THU in cynomolgus monkeys
- assay.setup: both, cynomolgus, cynomolgus monkey, plasma, iv, FdCyd half-life, monkeys; after IV FdCyd and THU administration; range
property.label: half-life

Measured half-life, "Nc1nc(=O)n([C@H]2C[C@H](O)[C@@H](CO)O2)cc1F" : 22 to 56 min

====

- method.description: Plasma pharmacokinetics of FdCyd, metabolites and THU in cynomolgus monkeys
- assay.setup: both, cynomolgus monkey, plasma, po, 10 mg/kg, AUC0-inf, analyte FdCyd; FdCyd 10 mg/kg PO 1 h after THU 500 mg/kg PO; N=4; mean (±SD)
property.label: AUC(0-inf) (ng·h/mL)
Write the answer as a number in ng·h/mL, unit excluded.

Measured AUC(0-inf), "Nc1nc(=O)n([C@H]2C[C@H](O)[C@@H](CO)O2)cc1F" : 5400

====

- method.description: Plasma pharmacokinetics of FdCyd, metabolites and THU in cynomolgus monkeys
- assay.setup: both, cynomolgus monkey, plasma, iv, AUC0-t, analyte FdCyd; FdCyd 8 mg/kg 3 h IV infusion with THU 30 mg/kg IV; N=2; mean (±SD)
property.label: AUC(0-t) (ng·h/mL)
Write the answer as a number in ng·h/mL, unit excluded.

Measured AUC(0-t), Nc1nc(=O)n([C@H]2C[C@H](O)[C@@H](CO)O2)cc1F [FdCyd, 5-fluoro-2’-deoxycytidine] : 17800
